- measurement-target: Protein-tyrosine phosphatase 1B (PTP1B) (Homo sapiens)
- Sequence (P18031 1-435): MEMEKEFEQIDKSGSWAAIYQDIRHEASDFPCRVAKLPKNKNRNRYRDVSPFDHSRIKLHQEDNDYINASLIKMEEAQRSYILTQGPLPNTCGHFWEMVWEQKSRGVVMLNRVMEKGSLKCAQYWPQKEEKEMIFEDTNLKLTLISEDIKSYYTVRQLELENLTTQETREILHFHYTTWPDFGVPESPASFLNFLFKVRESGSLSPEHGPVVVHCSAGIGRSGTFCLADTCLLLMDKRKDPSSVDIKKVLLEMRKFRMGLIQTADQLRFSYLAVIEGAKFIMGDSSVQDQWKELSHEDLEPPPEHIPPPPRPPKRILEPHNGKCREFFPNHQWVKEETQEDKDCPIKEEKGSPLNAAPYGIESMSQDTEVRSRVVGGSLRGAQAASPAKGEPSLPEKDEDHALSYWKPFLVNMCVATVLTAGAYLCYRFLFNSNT
- run-description: pNPP dephosphorylation assay with human recombinant PTP1B; Lineweaver-Burk and Dixon plots

compound: C=C[C@@]1(C)CCC2=C(C1)C(=O)C[C@H]1C(C)(C)C[C@H](O)C[C@]21C [compound 1, 2α-hydroxy-7-oxo-pimara-8(9),15-diene]
measurement-target: Protein-tyrosine phosphatase 1B (PTP1B) (Homo sapiens)
Ki / µM: 13.7
